# Target Of Assay: UniProt:P00533
pIC50: −log10 of the molar value.
Measured Endpoint: pIC50

Record excerpt, results attached:
Problem: Any idea what pIC50 came out for CN1C(=O)C(=Nc2ccc(C(=O)NNCCOCCOCC(=O)Nc3cccc4c3C(=O)N(C3CCC(=O)NC3=O)C4=O)cc2)c2ccccc21 (stereo not shown) on UniProt:P00533?
Solution: 5.52

Problem: Record: O=C(CSc1nc2ccccc2s1)NNCCOCCOCC(=O)Nc1cccc2c1C(=O)N(C1CCC(=O)NC1=O)C2=O (stereo not shown)
Solution: 5.64

[a] O=C(CSc1nc2ccccc2o1)NNCCOCCOCC(=O)Nc1cccc2c1C(=O)N(C1CCC(=O)NC1=O)C2=O (stereo not shown)
[b] Cn1c(=O)c(C(=O)NNCCOCCOCC(=O)Nc2cccc3c2C(=O)N(C2CCC(=O)NC2=O)C3=O)nc2ccccc21 (stereo not shown)
Problem: Lab note: check whether a or b has the lower measured pIC50. Your choice should be expressed through its label.
Solution: a
(a: 6.11, b: 7.00)

* * *

# Target Of Assay: EGFR^T790M (Homo sapiens, UniProt P00533, T790M)
# Sequence (P00533 25-1210 T790M): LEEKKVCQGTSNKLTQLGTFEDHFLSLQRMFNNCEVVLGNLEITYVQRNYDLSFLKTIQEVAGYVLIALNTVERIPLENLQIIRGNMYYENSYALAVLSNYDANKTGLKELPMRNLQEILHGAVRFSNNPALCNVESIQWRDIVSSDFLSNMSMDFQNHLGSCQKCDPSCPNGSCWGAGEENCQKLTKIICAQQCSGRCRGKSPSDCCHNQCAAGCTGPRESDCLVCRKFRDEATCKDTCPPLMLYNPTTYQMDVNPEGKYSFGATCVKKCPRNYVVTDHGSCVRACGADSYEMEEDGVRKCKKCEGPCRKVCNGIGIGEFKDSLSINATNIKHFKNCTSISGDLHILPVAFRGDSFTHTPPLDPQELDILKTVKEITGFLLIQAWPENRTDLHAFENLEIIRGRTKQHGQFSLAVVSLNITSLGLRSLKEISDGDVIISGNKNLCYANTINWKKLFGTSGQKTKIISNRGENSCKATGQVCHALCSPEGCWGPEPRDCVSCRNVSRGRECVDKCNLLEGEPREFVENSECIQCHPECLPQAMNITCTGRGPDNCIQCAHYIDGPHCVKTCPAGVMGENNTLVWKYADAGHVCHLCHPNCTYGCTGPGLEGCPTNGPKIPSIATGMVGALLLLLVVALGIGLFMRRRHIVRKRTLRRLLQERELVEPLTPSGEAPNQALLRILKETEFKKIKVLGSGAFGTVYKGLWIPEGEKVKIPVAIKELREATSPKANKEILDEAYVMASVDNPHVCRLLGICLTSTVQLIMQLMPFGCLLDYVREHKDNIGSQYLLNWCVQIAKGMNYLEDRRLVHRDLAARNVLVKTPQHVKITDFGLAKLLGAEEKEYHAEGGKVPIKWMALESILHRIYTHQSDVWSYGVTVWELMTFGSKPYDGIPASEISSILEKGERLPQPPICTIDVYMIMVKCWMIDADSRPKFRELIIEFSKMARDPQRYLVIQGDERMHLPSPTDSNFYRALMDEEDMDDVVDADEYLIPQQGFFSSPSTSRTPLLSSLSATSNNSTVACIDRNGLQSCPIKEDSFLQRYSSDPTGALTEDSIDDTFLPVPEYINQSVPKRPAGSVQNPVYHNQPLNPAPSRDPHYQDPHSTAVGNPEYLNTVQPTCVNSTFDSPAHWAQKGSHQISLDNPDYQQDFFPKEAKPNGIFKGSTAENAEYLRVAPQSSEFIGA
# Experiment: EGFR^T790M kinase inhibitory assay (HTRF)
# Measurement Context: ATP 1.65 µM, mean ± S.D of three experiments, read-out: EGFR^790M IC50
Measured Endpoint: IC50 (µM)

Problem: So what does the record say about IC50 for O=C1CCC(N2C(=O)c3cccc(NC(=O)COCCOCCOCCNC(=O)c4nc5ccccc5[nH]c4=O)c3C2=O)C(=O)N1 (stereo not shown) ?
Solution: 6.26

Problem: Record: O=C1CCC(N2C(=O)c3cccc(NC(=O)COCCOCCn4nc5[nH]c6ccccc6nc-5c4=O)c3C2=O)C(=O)N1 (stereo not shown)
Solution: 6.89

Problem: Record: CN1C(=O)C(=Nc2ccc(C(=O)NNCCOCCOCC(=O)Nc3cccc4c3C(=O)N(C3CCC(=O)NC3=O)C4=O)cc2)c2ccccc21 (stereo not shown)
Solution: 14.1

[P] Cn1c(=O)c(C(=O)NNCCOCCOCC(=O)Nc2cccc3c2C(=O)N(C2CCC(=O)NC2=O)C3=O)nc2ccccc21 (stereo not shown)
[Q] O=C(CSc1nc2ccccc2s1)NNCCOCCOCC(=O)Nc1cccc2c1C(=O)N(C1CCC(=O)NC1=O)C2=O (stereo not shown)
Problem: Lab note: check whether P or Q has the lower measured IC50. Your choice should be expressed through its label.
Solution: P
(P: 4.02 µM, Q: 15.3 µM)

[a] O=C1CCC(N2C(=O)c3cccc(NC(=O)COCCOCCNNC(=O)c4ccc(N=C5C(=O)Nc6ccccc65)cc4)c3C2=O)C(=O)N1 (stereo not shown)
[b] O=C(CSc1nc2ccccc2o1)NNCCOCCOCC(=O)Nc1cccc2c1C(=O)N(C1CCC(=O)NC1=O)C2=O (stereo not shown)
Problem: Lab note: check whether a or b has the lower measured IC50. Your choice should be expressed through its label.
Solution: a
(a: 8.16 µM, b: 16.3 µM)
